Origin of measurements: paper PMC11080019

Give measured IC50 for each item. Keep answers brief.
- System: HeLa (cervical cancer)
- protocol.details: CellTiter-Glo cytotoxicity assay, HeLa
- Format: cell-based
- recorded.conditions: Homo sapiens, top concentration 10 μM

Here are 4 compounds together with their reported answers.
{"compound": "OC[C@H]1O[C@@H](n2c3ccc4ncccc4c3c3c(-c4cc5ccccc5o4)ncnc32)[C@H](O)[C@@H]1O [14b]", "IC50": "> 10 µM"}
{"compound": "Nc1ncnc2c1c1c3cccnc3ccc1n2[C@@H]1O[C@H](CO)[C@@H](O)[C@H]1O [14e]", "IC50": "> 10 µM"}
{"compound": "Cc1ncnc2c1c1c3cccnc3ccc1n2[C@@H]1O[C@H](CO)[C@@H](O)[C@H]1O [14c]", "IC50": "> 10 µM"}
{"compound": "CN(C)c1ncnc2c1c1c3cccnc3ccc1n2[C@@H]1O[C@H](CO)[C@@H](O)[C@H]1O [14d]", "IC50": "> 10 µM"}

# batch: return IC50 for each of the 3 compounds below
1. CSc1ncnc2c1c1c3cccnc3ccc1n2[C@@H]1O[C@H](CO)[C@@H](O)[C@H]1O [14g]
2. OC[C@H]1O[C@@H](n2c3ccc4ncccc4c3c3c(-c4ccco4)ncnc32)[C@H](O)[C@@H]1O [14a]
3. COc1ncnc2c1c1c3cccnc3ccc1n2[C@@H]1O[C@H](CO)[C@@H](O)[C@H]1O [14f]

1. > 10 µM
2. > 10 µM
3. > 10 µM
